Assay: Solubility studies in alkaline buffers
Assay type: physicochemical
Details: phosphate buffer, 25 °C, aqueous buffer, thermodynamic from solid; buffer 0.1M NaH2PO4/NaOH at nominal pH=12; read-out: solubility
quantity: solubility at 48 h

[[record]]
givensmiles = "CN1C(C(=O)Nc2ccccn2)=C(O)c2sccc2S1(=O)=O"
experimentalresult = "14.3 mg/mL"


----------
Assay: Solubility studies in alkaline buffers
Type: physicochemical
Conditions: 25 °C, aqueous buffer, thermodynamic from solid; buffer glycine/NaOH at nominal pH=12; read-out: solubility
quantity: solubility at 48 h (mg/mL)

[[record]]
givensmiles = "Cc1cnc(NC(=O)C2=C(O)c3ccccc3S(=O)(=O)N2C)s1"
experimentalresult = 15.4

